Property: IC50; scope: individual compounds
assayed.target: baculovirus-expressed ALK (Homo sapiens, UniProt Q9UM73)
Sequence (Q9UM73 19-1620): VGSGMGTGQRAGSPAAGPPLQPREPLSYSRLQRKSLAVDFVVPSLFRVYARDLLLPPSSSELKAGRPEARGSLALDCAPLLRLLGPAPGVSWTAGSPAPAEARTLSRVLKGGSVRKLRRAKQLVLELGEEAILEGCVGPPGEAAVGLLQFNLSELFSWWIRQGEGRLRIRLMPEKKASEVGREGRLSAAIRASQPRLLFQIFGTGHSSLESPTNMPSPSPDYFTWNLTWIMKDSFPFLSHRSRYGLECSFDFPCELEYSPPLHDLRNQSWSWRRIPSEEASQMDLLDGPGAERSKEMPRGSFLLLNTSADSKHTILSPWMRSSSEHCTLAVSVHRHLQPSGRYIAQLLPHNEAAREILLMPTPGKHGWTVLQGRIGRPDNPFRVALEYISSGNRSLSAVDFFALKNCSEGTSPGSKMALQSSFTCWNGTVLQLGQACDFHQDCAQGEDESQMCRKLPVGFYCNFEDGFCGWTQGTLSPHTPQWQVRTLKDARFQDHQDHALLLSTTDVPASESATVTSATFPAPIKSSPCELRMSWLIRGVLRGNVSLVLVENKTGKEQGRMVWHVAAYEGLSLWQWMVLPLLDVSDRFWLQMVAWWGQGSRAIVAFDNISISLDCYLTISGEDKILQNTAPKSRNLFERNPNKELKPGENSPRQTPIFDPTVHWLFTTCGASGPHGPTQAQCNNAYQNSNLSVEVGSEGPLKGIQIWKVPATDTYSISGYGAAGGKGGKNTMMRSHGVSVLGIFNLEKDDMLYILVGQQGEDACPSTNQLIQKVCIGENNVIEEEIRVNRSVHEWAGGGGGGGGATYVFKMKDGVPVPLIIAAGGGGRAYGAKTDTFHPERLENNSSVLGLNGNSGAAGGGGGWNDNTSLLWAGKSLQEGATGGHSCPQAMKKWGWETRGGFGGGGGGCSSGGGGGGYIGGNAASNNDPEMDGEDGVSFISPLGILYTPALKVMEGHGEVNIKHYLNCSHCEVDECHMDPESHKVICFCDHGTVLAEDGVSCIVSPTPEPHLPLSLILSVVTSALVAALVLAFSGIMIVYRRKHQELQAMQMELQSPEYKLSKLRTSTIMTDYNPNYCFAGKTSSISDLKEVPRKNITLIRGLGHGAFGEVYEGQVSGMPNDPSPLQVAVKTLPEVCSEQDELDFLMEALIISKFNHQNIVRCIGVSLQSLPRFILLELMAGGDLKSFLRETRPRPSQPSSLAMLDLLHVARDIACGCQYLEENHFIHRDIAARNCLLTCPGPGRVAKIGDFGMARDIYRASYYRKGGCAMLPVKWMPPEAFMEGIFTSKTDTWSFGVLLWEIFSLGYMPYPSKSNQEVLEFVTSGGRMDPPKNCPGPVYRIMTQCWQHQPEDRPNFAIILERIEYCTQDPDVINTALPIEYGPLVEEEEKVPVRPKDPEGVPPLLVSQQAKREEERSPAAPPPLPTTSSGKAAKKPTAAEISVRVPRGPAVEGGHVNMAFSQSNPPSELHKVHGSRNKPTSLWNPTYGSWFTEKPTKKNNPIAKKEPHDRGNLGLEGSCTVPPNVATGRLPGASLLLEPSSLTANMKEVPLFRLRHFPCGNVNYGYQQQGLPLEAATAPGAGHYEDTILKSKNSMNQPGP
assay.summary: ALK kinase inhibition, TRF/ELISA
Type: biochemical
study.conditions: read-out: ALK Potency

Past entries and their recorded results:
* NC(=O)[C@@H]1[C@H](Nc2ccnc3[nH]c(-c4cccc(CN5CCOCC5)c4)nc23)[C@H]2C=C[C@@H]1C2 | > 10000 nM
* COc1cc(C(=O)N2CCOCC2)ccc1-c1nc2c(N[C@H]3[C@@H](C(N)=O)[C@@H]4C=C[C@H]3C4)c(Cl)cnc2[nH]1 | < 100 nM
* CN1CCN(Cc2ccc(-c3nc4c(N[C@@H]5CCCC[C@H]5NS(C)(=O)=O)c(Cl)cnc4[nH]3)cc2)CC1 | < 100 nM
* NC(=O)[C@@H]1[C@H](Nc2c(Cl)cnc3[nH]c(-c4ccc(F)cc4)nc23)[C@H]2C=C[C@@H]1C2 | 100 to 1000 nM
* NC(=O)[C@@H]1[C@H](Nc2c(Br)cnc3[nH]c(-c4cccc(N5CCOCC5)c4)nc23)[C@H]2C=C[C@@H]1C2 | < 100 nM

Lookup: Given the entry N#Cc1ccc(-c2nc3c(N[C@H]4[C@@H](C(N)=O)[C@@H]5C=C[C@H]4C5)c(Cl)cnc3[nH]2)cc1 , report its measured IC50.
Found: 100 to 1000 nM
